# Test system: Candida albicans (strain n° CA980001)
# TEST_PROTOCOL: Antifungal activity on a clinical strain of Candida albicans (MTT colorimetric microplate test)
# Format: cell-based
# SETUP_CONDITIONS: summary of Tables 27 to 40
PARAMETER_MEASURED: activity of inhibition of Candida albicans (in words)

Observe how each entry below is paired with its result.
COMPOUND	RECORDED_MEASUREMENT
CCn1c(C(c2ccc(Cl)cc2)n2ccnc2)c(C)c2ccccc21.O=[N+]([O-])O (stereo not drawn) [29n]	significant activity
CCN1CCc2cccc(C(c3cccc(Cl)c3)n3ccnc3)c21 (racemic)	most active
CCn1ccc2cccc(C(c3ccc(Cl)cc3)n3ccnc3)c21.O=[N+]([O-])O (stereo not drawn) [56n]	most active
CCN1CCc2cccc(C(c3ccc(F)cc3)n3ccnc3)c21 (stereo not drawn)	most active
CCn1ccc2cccc(C(c3cccc(Cl)c3)n3ccnc3)c21.O=[N+]([O-])O (stereo not drawn) [55n]	most active

Problem: What value of measured activity of inhibition of Candida albicans (in words) is listed for OC(Cn1ccnc1)(Cn1ccc2ccccc21)c1ccc(F)cc1 (stereo not drawn) ?
Result: most active

Problem: activity of inhibition of Candida albicans (in words) for CCn1cc(C(c2cccc(Cl)c2)n2ccnc2)c2ccccc21.O=[N+]([O-])O (stereo not drawn) [40n] ?
Result: significant activity

Problem: Fill in: activity of inhibition of Candida albicans (in words) of OC(Cn1ccnc1)(Cn1ccc2ccccc21)c1ccc(F)cc1F (stereo not drawn) is ___
Result: most active

Problem: What measured activity of inhibition of Candida albicans (in words) goes with CCn1c(C)c(C(c2ccc(F)cc2)n2ccnc2)c2ccccc21 (stereo not drawn) ?
Result: significant activity
